Value source: patent US6706663B2

Tested on: ORYSAT (Rice, Tebonnet)
Test: Flooded paddy, post-transplant rice tolerance
Format: in vivo, Oryza sativa, (L.) Tebonnet
Details: flooded paddy, post-transplant rice; rate 0.0080 kg/ha; rated 3-4 weeks after treatment; 0-9 rating scale
Kindly apply the following: Y if herbicidal rating, ORYSAT (rice tolerance) is less than 4, N in every other case.

Use the examples below as a reference point.
CSCC1COC(c2nsc3ccc(-n4c(=O)cc(C(F)(F)F)n(C)c4=O)cc23)O1 (stereo not drawn) [Compound 84] :: Y
Cn1c(C(F)(F)F)cc(=O)n(-c2ccc3snc(C4OCC(CO)O4)c3c2)c1=O (stereo not drawn) [Compound 73] :: Y
Cc1sccc1-c1nsc2ccc(-n3c(=O)cc(C(F)(F)F)n(C)c3=O)cc12 [Compound 68] :: Y

[in] Determine whether this molecule shows herbicidal rating, ORYSAT (rice tolerance) lower than 4 (ties excluded): Cc1cc(C)c(-c2nsc3ccc(-n4c(=O)cc(C(F)(F)F)n(C)c4=O)cc23)s1 [Compound 27]
[out] Y

[in] Also check Cc1cccnc1-c1nsc2cc(F)c(-n3c(=O)cc(C(F)(F)F)n(C)c3=O)cc12 [Compound 44]
[out] Y

[in] Then Cn1c(C(F)(F)F)cc(=O)n(-c2ccc3snc(C4OCC(C)(C)CO4)c3c2)c1=O [Compound 36] ?
[out] N

[in] Query C[C@@H]1C[C@H](C)OC(c2nsc3ccc(-n4c(=O)cc(C(F)(F)F)n(C)c4=O)cc23)O1 (stereo partly drawn) [Compound 50] next
[out] Y

[in] And C[C@@H]1C[C@H](C)OC(c2nsc3ccc(-n4c(=O)cc(C(F)(F)F)n(C)c4=O)cc23)O1 (stereo partly drawn) [Compound 51] ?
[out] N

[in] Try C[C@@H]1OC(c2nsc3ccc(-n4c(=O)cc(C(F)(F)F)n(C)c4=O)cc23)O[C@@H]1C (stereo partly drawn) [Compound 47] next.
[out] Y

[in] Check Cn1c(C(F)(F)F)cc(=O)n(-c2ccc3snc(C4OCCCO4)c3c2)c1=O [Compound 28] too.
[out] N

[in] Next molecule: Cc1ccc(-c2nsc3ccc(-n4c(=O)cc(C(F)(F)F)n(C)c4=O)cc23)s1 [Compound 21]
[out] Y
